- tgt: ΔF508 mutant CFTR (Homo sapiens, UniProt P13569, DEL508-508)
- Construct: expressed in transfected cells; host or cells: Fischer rat thyroid (FRT) cells
- Sequence (P13569 with tags, fused parts or gaps DEL508-508): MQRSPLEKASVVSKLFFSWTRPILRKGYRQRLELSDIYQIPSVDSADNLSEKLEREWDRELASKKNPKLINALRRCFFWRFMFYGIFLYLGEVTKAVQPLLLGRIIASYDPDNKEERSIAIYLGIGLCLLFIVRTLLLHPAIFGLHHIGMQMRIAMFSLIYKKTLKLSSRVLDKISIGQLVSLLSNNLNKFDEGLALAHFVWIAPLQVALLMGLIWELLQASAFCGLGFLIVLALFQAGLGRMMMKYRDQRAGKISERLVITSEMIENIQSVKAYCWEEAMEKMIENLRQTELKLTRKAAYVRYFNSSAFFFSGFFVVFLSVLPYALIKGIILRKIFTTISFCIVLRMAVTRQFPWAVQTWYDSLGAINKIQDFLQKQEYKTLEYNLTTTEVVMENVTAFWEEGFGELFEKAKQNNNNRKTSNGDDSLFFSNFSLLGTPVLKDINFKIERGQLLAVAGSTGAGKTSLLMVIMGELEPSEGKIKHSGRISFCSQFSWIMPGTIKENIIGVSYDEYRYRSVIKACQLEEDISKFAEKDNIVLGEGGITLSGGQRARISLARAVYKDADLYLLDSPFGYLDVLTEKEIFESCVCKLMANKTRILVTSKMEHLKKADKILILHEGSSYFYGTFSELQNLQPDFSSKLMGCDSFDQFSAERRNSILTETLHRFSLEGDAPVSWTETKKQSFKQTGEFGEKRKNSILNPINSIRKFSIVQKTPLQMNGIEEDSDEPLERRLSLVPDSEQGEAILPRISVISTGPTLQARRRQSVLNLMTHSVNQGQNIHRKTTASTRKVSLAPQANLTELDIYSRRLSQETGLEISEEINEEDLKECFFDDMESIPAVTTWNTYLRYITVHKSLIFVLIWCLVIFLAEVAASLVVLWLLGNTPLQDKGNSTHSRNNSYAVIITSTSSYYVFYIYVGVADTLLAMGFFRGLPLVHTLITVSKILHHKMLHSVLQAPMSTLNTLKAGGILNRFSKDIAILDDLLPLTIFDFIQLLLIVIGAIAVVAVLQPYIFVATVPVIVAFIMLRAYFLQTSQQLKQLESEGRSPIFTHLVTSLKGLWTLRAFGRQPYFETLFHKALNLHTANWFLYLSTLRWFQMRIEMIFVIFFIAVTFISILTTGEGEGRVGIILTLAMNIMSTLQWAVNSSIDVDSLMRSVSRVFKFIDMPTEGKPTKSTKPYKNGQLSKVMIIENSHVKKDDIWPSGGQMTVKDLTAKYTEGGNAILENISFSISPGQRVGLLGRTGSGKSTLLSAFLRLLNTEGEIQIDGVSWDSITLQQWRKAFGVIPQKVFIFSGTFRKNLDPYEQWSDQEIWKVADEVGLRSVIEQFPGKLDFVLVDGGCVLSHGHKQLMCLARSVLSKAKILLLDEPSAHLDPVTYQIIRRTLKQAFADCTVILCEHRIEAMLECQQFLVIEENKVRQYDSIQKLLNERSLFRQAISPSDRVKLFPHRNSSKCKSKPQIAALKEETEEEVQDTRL
- procedure text: Fluorescence (YFP halide quenching) assay of ΔF508 mutant CFTR activity in FRT cells
- Type: cell-based
- Set-up: key: fold of mean activity with forskolin alone (I− quenching rate)
- test context: FRT cells expressing ΔF508-CFTR and YFP-H148Q/I152L, rescued at 27° C. 20-24 h; forskolin 20 μM + test compound 20 μM for 20 min; I− influx rate normalized to forskolin alone
observable: CFTR Activity

molecule	reading
Cl.O=C(Nc1cncnc1OC1CCCNC1)c1ccc(F)c(-c2c(F)cccc2F)n1 (stereo not drawn)	0.6
Cl.NCCCOc1ncncc1NC(=O)c1ccc(F)c(-c2c(F)cccc2F)n1	0.7
Cl.Nc1cc(C(F)(F)F)c(-c2c(F)cccc2F)nc1C(=O)Nc1cncnc1OC1CCNCC1	4.0

a = Cl.Nc1cc(C(F)(F)F)c(-c2c(F)cccc2F)nc1C(=O)Nc1cncnc1O[C@H]1CC[C@H](N)CC1
b = Cl.NCC(CO)COc1ncncc1NC(=O)c1ccc(C(F)(F)F)c(-c2c(F)cccc2F)n1 (stereo not drawn)
c = CNCCCCOc1ncncc1NC(=O)c1ccc(F)c(-c2c(F)cccc2F)n1.Cl
Would you mind ranking these molecules by ascending CFTR Activity? Write the labels out in the order the request specifies. c, b, a
(c: 0.5, b: 2.8, a: 4.3)
